- Tested on: MDA-MB-231 human breast cancer cells
- assayComment: Cell proliferation assay (CellTiter-Glo, 72 hours treatment)
- Type: cell-based
- measurementParameters: Homo sapiens; MDA-MB-231 cells, 72 hours at 37° C., CellTiter-Glo; read-out: MDA-MB-231 cell proliferation assay (IC50)
pIC50: −log10 of the molar value.
quantity: pIC50

molecule	recordedMeasurement
COc1cncc2c1[C@]1(O)[C@H](O)[C@H](CNCC(F)(F)F)[C@@H](c3ccccc3)[C@]1(c1ccc(C#N)cc1)O2 [291F]	6.00 to 7.00
COc1cncc2c1[C@]1(O)[C@H](O)[C@H](CN(C)C3CC3)[C@@H](c3ccccc3)[C@]1(c1ccc(C#N)cc1)O2 (racemic) [246F]	6.00 to 7.00
COc1cc2c(c(OC)n1)[C@]1(O)[C@H](O)[C@H](CN(C)C)[C@@H](c3ccccc3)[C@]1(c1ccc(C#N)cc1)O2 (single isomer, unassigned) [231F]	> 7.00
CC#CC1(O)C(C(=O)N(C)C)[C@@H](c2ccccc2)[C@]2(c3ccc(Br)cc3)Oc3cc(Cl)cnc3[C@]12O (mixture of isomers) [191F]	6.00 to 7.00
COc1cncc2c1[C@]1(O)[C@](O)(CN3CCOCC3)C[C@@H](c3ccccc3)[C@]1(c1ccc(C#N)cc1)O2 (racemic) [287F]	< 6.00
COc1cncc2c1[C@]1(O)[C@H](O)[C@H](CN(C)C(C)(C)C)[C@@H](c3ccccc3)[C@]1(c1ccc(C#N)cc1)O2 (single isomer, unassigned) [243F]	6.00 to 7.00
